Test system: LXRa homodimer (NR concentration 270 nM)
assaySummary: PBM binding z-score (relative to random genomic background probes); higher = stronger binding; sequences stand for … in GC…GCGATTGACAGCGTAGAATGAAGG
measuredQuantity: PBM binding z-score
One number for each entry.

- seqString: "ATCTCTAGGTAAAGATAGTTCAGTGATTGCAAAT"
  PBM binding z-score: 0.679
- seqString: "ATATGTAGGTTGAGGGTCATTCAGGTTGGTTCGC"
  PBM binding z-score: 1.56
- seqString: "ACCGACAGGTGAGTGAAGGTAACTCAGCTGGACG"
  PBM binding z-score: -0.658
- seqString: "TTCCCAAGGTGAAGGTCGTTGATCCCTCTGTAGA"
  PBM binding z-score: -0.0326
- seqString: "CCTGCTAGGTCAATGGTCAGCAAAAGCAGCTCGC"
  PBM binding z-score: 0.13

We next turn to a different sequence, shown below.
With LXRa homodimer (NR concentration 270 nM) as the test system, GGAACGCGGGCAAAGTTGATAGCATCTGTCGACG showed PBM binding z-score of -0.736

* * *

Field: PBM binding z-score. Provide a value for each of the sequences that follow.
System: THRa:RXRa (NR concentration 90 nM, RXRa partner concentration 90 nM)
assaySummary: PBM binding z-score (relative to random genomic background probes); higher = stronger binding; sequences stand for … in GC…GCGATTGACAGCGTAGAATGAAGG
Answers are plain numbers.

- seqString: "GCTATTAGTTGAAAGGGCAACTGAATGATTCTCG"
  targetOfAssay: "THRa:RXRa (NR concentration 90 nM, RXRa partner concentration 90 nM)"
  PBM binding z-score: 0.832
- seqString: "ACATGTAGGTTACATCCGGGTCATTCAGGCTATG"
  targetOfAssay: "THRa:RXRa (NR concentration 90 nM, RXRa partner concentration 90 nM)"
  PBM binding z-score: 3.83
- seqString: "GCTGCTAGGTCAAATGATGGTCAGCTAAAGCTCG"
  targetOfAssay: "THRa:RXRa (NR concentration 90 nM, RXRa partner concentration 90 nM)"
  PBM binding z-score: 2.78
- seqString: "GCTAGTTGGTCAGAAAAAGGTCACACACCGGTCG"
  targetOfAssay: "THRa:RXRa (NR concentration 90 nM, RXRa partner concentration 90 nM)"
  PBM binding z-score: 3.52
- seqString: "TAGTCTAGGTCATTCAGGGGCCAGTATAGAAAGC"
  targetOfAssay: "THRa:RXRa (NR concentration 90 nM, RXRa partner concentration 90 nM)"
  PBM binding z-score: 3.63

Please go through the list and note PBM binding z-score for each sequence.
1. GCCTACGGGTCAAAGGTTATAGCATGAATAGAAT
2. ATCTCTAGGTAAAGTTCAGTCAAAGATCGATAGA
3. ATCTCTAGGTAACCAAGTTCAGTGCATGCCGAAC
4. AGTCAAAGTTCACTAGGTAACGTAGGATTCAGCT
5. TCTAGTTGATCAAAGGTCACACACTCGAAATGCG
6. ATCCCTAGGTAACAAGTTCAGTGAAAGAGAGGAC

Result:
3.62
1.46
1.62
1.98
4.22
1.65

Please go through the list and note PBM binding z-score for each sequence.
1. CGTCAAAGTTCCAGGTAACGTAACAGAAAGCAGC
2. AGAGTGAGGTTATTAAGATCAGGGAATTGCGGTC
3. TCATATAGCTAAATGCTAGGTGAAAGTCCGATCT
4. ATCTCTTGGTAAAGTTCAGTGAAAGATCGATAGA
5. CGAACGTGGGCATGAGTTGATAGCAAATGCCGAT
6. TCAGACAGGTGAAGATAACTCAGGTACGCAGTCG
7. TCATCTAGGTAAAGGTGAAAGTCGAACGATATGA
8. CCTACTCGGCCACGAAAGGTCATTGATTCAGTGA

Result:
0.992
2.12
0.577
0.889
-0.695
0.737
1.75
3.53

* * *

System: RARa homodimer (NR concentration 270 nM)
assaySummary: PBM binding z-score (relative to random genomic background probes); higher = stronger binding; sequences stand for … in GC…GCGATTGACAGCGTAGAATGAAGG
measuredQuantity: PBM binding z-score
One number for each entry.

Some entries whose results are on file:
- seqString: "AGCTCTAGGTAAAGATAGTTCAGTGAATGCAAAT"
  PBM binding z-score: 1.11
- seqString: "CAAACTAGGTCATCGGAAGGTCAAAGTCCGCATG"
  PBM binding z-score: 1.67

Please go through the list and note PBM binding z-score for each sequence.
1. GGGACGAGGGCAAAGTTGATAGCATCTGTCGACG
2. CGAACGAGGGCGTGAGTTGATAGCAAATGCCGAT
3. CAAACTAGCTCAAGAGGTCAAAGTCCGCTTCCCG
4. ACTTACGGGTAAACGAGGTTATAGCACGCGTATA

Result:
1. 0.362
2. -0.533
3. 1.34
4. 0.806

* * *

System: PPARg:RXRa (NR concentration 180 nM, RXRa partner concentration 90 nM)
assaySummary: PBM binding z-score (relative to random genomic background probes); higher = stronger binding; sequences stand for … in GC…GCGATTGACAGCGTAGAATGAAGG
Lab note: compare PBM binding z-score against 3. Equal or greater, write T. Smaller, write F.

See these solved cases before continuing.
- seqString: "CCTATCAGTTGACCATAAGGGCAACCGAAGCTCG"
  labelValue: "F"
- seqString: "ACTATTAGTTGAGACGACGGCAACCGATAGGTTG"
  labelValue: "F"

Ask: Check the entry CGAACTAAGTCAGAACAGGACAGTGAAGGATGAT : does PBM binding z-score equal or exceed 3?
Result: F

Ask: Check the entry TGTCAAAGTTCAAAGCTAACGTAAGTATCCACAC : does PBM binding z-score equal or exceed 3?
Result: T

Ask: Check the entry CCTGCTAGGTCATGGTAAGCTAATCTACAGTATG : does PBM binding z-score equal or exceed 3?
Result: F

Ask: Check the entry CGTCAATGTTCAAGGTAACGTAACAGAAAGCAGC : does PBM binding z-score equal or exceed 3?
Result: F

Ask: Check the entry GGTATTAGTTGAAAGGGCAACCGAATGATTCTCG : does PBM binding z-score equal or exceed 3?
Result: T

Ask: Check the entry CGTCCAAGGACAAAGGTCAGTGAAGAGATGACGG : does PBM binding z-score equal or exceed 3?
Result: T

Ask: Check the entry GCTATTAGTTGAAAGGGCAGCCGAATGATTCTCG : does PBM binding z-score equal or exceed 3?
Result: F

Ask: Check the entry TCATATAGGTAAATGCTAGATGAAAGTCCGATCT : does PBM binding z-score equal or exceed 3?
Result: F

Ask: Check the entry AATCAAAGTTCATCTAGGTAACGTAAGATATGCT : does PBM binding z-score equal or exceed 3?
Result: T

Ask: Check the entry CGCACGAGGGCATGAGTTGATAGCAAATGCCGAT : does PBM binding z-score equal or exceed 3?
Result: F

* * *

Test system: PPARg:RXRa IVT, anti-PPARg (NR concentration 270 nM, RXRa partner concentration 90 nM)
assaySummary: PBM binding z-score (relative to random genomic background probes); higher = stronger binding; sequences stand for … in GC…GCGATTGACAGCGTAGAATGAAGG
Field: PBM binding z-score. Provide a value for each of the sequences that follow.
Answers are plain numbers.

Some entries whose results are on file:
- seqString: "TCATATAGGTAATACAGGTGAACGTCGGCATCTA"
  PBM binding z-score: 3.64
- seqString: "CGTCCAAGGTCATAGGAGGTCAGTGTAGACAGAT"
  PBM binding z-score: 4.6
- seqString: "GCTCGGAGGACAAGGTCAGAGGTTTGTCCGTAGA"
  PBM binding z-score: 1.09

Please go through the list and note PBM binding z-score for each sequence.
1. CCGTACGGGTCACTCCAGGTTATAGCATCGGAGT
2. ACTATTAGTTGACTTAGGGTAACCGATACGACGC

Result:
1: 2.49; 2: 0.626

Please go through the list and note PBM binding z-score for each sequence.
1. ATCTCTAGGTAAAGTTCAGTGAGAGATCGATAGA
2. ACCGAAAGGTCGTGAGGTGAGTATACAGAAAGGC
3. TCATATAGGAAAACAGGTGAAAGTCCGTAAGTTA
4. TCTATTAGTTGATTAGGACAACCGAAACAGCGGA

Result:
1: 2.62; 2: 2.23; 3: 1.11; 4: 0.979

Please go through the list and note PBM binding z-score for each sequence.
1. TAGCCTAGGTCAGATCGGGCCAGTGTACGCTATA
2. CCGACTGGGGCAGAAACGTTACCATACCATCCGG
3. GCGACTGGGGCATCAGCAGGTTATCATAACTTAA

Result:
1.31
0.558
3.13
